As shown below, each of these molecules has a reported z-score value.
# protocol: blockers of DNA damage checkpoint Chk1 activation – imaging, HeLa, hydroxyurea, phospho-Chk1 antibody, percent positive cells, primary screen (AID 1186)
# stated-conditions: hydroxyurea-induced phospho-Chk1 immunofluorescence imaging, higher = more signal
Give the figure only, with no unit attached.

Data request: # z-score lookup, item C=CCC(OC(C)=O)[C@@H]1[C@@H](N(Cc2ccc(-c3cccc(C(F)(F)F)c3)o2)C(=O)c2cccc3ccccc23)c2cc(OCCCO)ccc2N1C(=O)Cc1ccc2ccccc2c1 (some centres undefined)
Data returned: 0.233

Data request: # z-score lookup, item `COCCCNC(=O)[C@@]1(Cc2ccccc2CN=[N+]=[N-])N=C(c2ccc(OCCCO)cc2)O[C@H]1c1ccccc1CN=[N+]=[N-]`
Data returned: -0.485

Data request: # z-score lookup, item CCCCN1CC=CC23O[C@@H]4/C=C\CCCOC(=O)C4[C@H]2C(=O)N(CCCCCO)[C@@H]3C1=O (some centres undefined)
Data returned: 1.19

Data request: # z-score lookup, item `COC(=O)[C@@]1(Cc2ccccc2)[C@H]2c3cc(C(=O)N4CCCC4)n(Cc4ccc(O)c(OC)c4)c3C[C@H]2CN1C(=O)c1ccccc1`
Data returned: 1.13
